// data source = ChEMBL document CHEMBL2169845

method description: Inhibition of c-terminally truncated N-terminal 8xHis-tagged human Bcl-xL deletion mutant expressed in Escherichia coli BL21 (DE3) after 2 hrs by fluorescence polarization assay
test readout: IC50 (nM)
Return type: number; implicit unit nM.

// worked examples, IC50 included
Cc1c(C(=O)O)c(-c2cccc(N3CCN(c4ccc(NS(=O)(=O)c5ccc(N[C@H](CCN6CCC6)CSc6ccccc6)c(S(=O)(=O)C(F)(F)F)c5)cc4)CC3)c2)c(-c2ccc(Cl)cc2)n1C 16.5
CCCCn1c(C)c(C(=O)O)c(-c2cccc(N3CCN(c4ccc(NS(=O)(=O)c5ccc(N[C@H](CCN6CCC(O)CC6)CSc6ccccc6)c(S(=O)(=O)C(F)(F)F)c5)cc4)CC3)c2)c1-c1ccc(Cl)cc1 6.3
Cc1cccc(S(=O)(=O)Nc2ccc(N3CCN(c4cccc(-c5c(C(=O)NCCCN6CCN(C)CC6)c(C)n(C)c5-c5ccc(Cl)cc5)c4)CC3)cc2)c1 1990
CCc1cccc(S(=O)(=O)Nc2ccc(N3CCN(c4cccc(-c5c(C(=O)NCCCN6CCN(C)CC6)c(C)n(C)c5-c5ccc(Cl)cc5)c4)CC3)cc2)c1 1950
Cc1c(C(=O)NCCCN2CCN(C)CC2)c(-c2cccc(N3CCN(c4ccc(NS(=O)(=O)c5cccc(F)c5)cc4)CC3)c2)c(-c2ccc(Cl)cc2)n1C 1310

We next turn to a different molecule, shown below.
INPUT: # query: IC50 of entry "Cc1c(C(=O)O)c(-c2cccc(N3CCN(c4ccc(NS(=O)(=O)c5ccc(N[C@H](CCN6CC(O)C6)CSc6ccccc6)c(S(=O)(=O)C(F)(F)F)c5)cc4)CC3)c2)c(-c2ccc(Cl)cc2)n1C"
OUTPUT: 10.5

----------
method description: Cytotoxicity against human NCI-H146 cells assessed as growth inhibition after 4 days by WST-8 assay
Type: functional, cell-based
run parameters: NCI-H146, 96 h
pIC50: −log10 of the molar value.
Where pIC50 equals or exceeds 7, the correct label is fulfilled; where it does not, the label is not fulfilled.

Here are 3 compounds together with their reported answers.
Cc1c(C(=O)O)c(-c2cccc(N3CCN(c4ccc(NS(=O)(=O)c5ccc(N[C@H](CCN6CC(O)C6)CSc6ccccc6)c(S(=O)(=O)C(F)(F)F)c5)cc4)CC3)c2)c(-c2ccc(Cl)cc2)n1C not fulfilled
Cc1c(C(=O)O)c(-c2cccc(N3CCN(c4ccc(NS(=O)(=O)c5ccc(N[C@H](CCN6CCC(C)(O)CC6)CSc6ccccc6)c(S(=O)(=O)C(F)(F)F)c5)cc4)CC3)c2)c(-c2ccc(Cl)cc2)n1C not fulfilled
Cc1c(C(=O)O)c(-c2cccc(N3CCN(c4ccc(NS(=O)(=O)c5ccc(N[C@H](CCN6CCC(O)CC6)CSc6ccccc6)c(S(=O)(=O)C(F)(F)F)c5)cc4)CC3)c2)c(-c2ccc(Cl)cc2)n1C(C)C fulfilled

Attention now turns to another entry.
INPUT: Hi, just wondering whether "CCn1c(C)c(C(=O)O)c(-c2cccc(N3CCN(c4ccc(NS(=O)(=O)c5ccc(N[C@H](CCN6CCC(O)CC6)CSc6ccccc6)c(S(=O)(=O)C(F)(F)F)c5)cc4)CC3)c2)c1-c1ccc(Cl)cc1" shows pIC50 of 7 or higher.
OUTPUT: fulfilled

----------
method description: Toxicity in iv dosed SCID mouse administered 5 days per week for 2 weeks
Assay type: organism-based
run parameters: in vivo
test readout: MTD at 2 weeks (mg/kg)
Reply numerically in mg/kg, unit not repeated.

Some compounds with known MTD at 2 weeks results, for comparison:
Cc1c(C(=O)O)c(-c2cccc(N3CCN(c4ccc(NS(=O)(=O)c5ccc(N[C@H](CCN6CCC(O)CC6)CSc6ccccc6)c(S(=O)(=O)C(F)(F)F)c5)cc4)CC3)c2)c(-c2ccc(Cl)cc2)n1C(C)C 10
CCn1c(C)c(C(=O)O)c(-c2cccc(N3CCN(c4ccc(NS(=O)(=O)c5ccc(N[C@H](CCN6CCC(O)CC6)CSc6ccccc6)c(S(=O)(=O)C(F)(F)F)c5)cc4)CC3)c2)c1-c1ccc(Cl)cc1 25

Switching to the query record.
INPUT: Any idea what its MTD at 2 weeks is? The compound is "Cc1c(C(=O)O)c(-c2cccc(N3CCN(c4ccc(NS(=O)(=O)c5ccc(N[C@H](CCN6CCC(O)CC6)CSc6ccccc6)c(S(=O)(=O)C(F)(F)F)c5)cc4)CC3)c2)c(-c2ccc(Cl)cc2)n1C"
OUTPUT: 50
